assay: Volume of distribution in rat at 5 mg/kg, iv administered as single dose; format: ADME, organism-based; design: dose 5 mg/kg, route intravenous; conditions: in vivo
EXPERIMENTAL_ENDPOINT: Vd (L/kg)
Provide the reading as a plain figure in L/kg.

stdin: Which measured Vd value corresponds to Clc1cccc(OC(c2cccnc2)C2CCNCC2)c1Cl (single isomer, unassigned; enantiomer 1) ?
stdout: 33
